B1: Azoarcus group I ribozyme (parent)
chain: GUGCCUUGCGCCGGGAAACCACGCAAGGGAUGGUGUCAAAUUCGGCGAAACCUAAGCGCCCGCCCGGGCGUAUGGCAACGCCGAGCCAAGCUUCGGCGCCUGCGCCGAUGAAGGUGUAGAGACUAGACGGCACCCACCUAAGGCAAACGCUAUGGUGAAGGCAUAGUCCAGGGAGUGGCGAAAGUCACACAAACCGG

Variants of: B1
Test: reverse-splicing fitness (ratio to wild type); higher = more active; in vitro selection; Mg2+ level not given
# key: entry, value: reverse-splicing fitness
ASSAY READOUT: reverse-splicing fitness

[[record]]
variant_designation = "C82G A111U A120U A145C C150U C169U"
readout_number = 0.00298

[[record]]
variant_designation = "C82A A145G C150U U176C"
readout_number = 0.363

[[record]]
variant_designation = "C82G A111G A120U A145U C150U C169U U176G"
readout_number = 0.00196

[[record]]
variant_designation = "A111U A145U C150A C169G U176A"
readout_number = 0.0129

[[record]]
variant_designation = "C82G A111G A120G A145U C150G C169U"
readout_number = 0.00943

[[record]]
variant_designation = "A111U C150U U176A"
readout_number = 0.6

[[record]]
variant_designation = "C82A A111C A120U A145C C150A C169G"
readout_number = 0.00308

[[record]]
variant_designation = "C82G A111U A120G C150G U176G"
readout_number = 0.00354

[[record]]
variant_designation = "C82U A111U A145U C150A C169A U176G"
readout_number = 0.00735

[[record]]
variant_designation = "C82G A111U A120C C150U C169G U176C"
readout_number = 0.0194

[[record]]
variant_designation = "C82A A111U A120U A145G C150A"
readout_number = 0.00899

[[record]]
variant_designation = "A120G A145G C150U C169A"
readout_number = 0.369

[[record]]
variant_designation = "C82A C150U C169U"
readout_number = 0.0139

[[record]]
variant_designation = "A111U C150G C169U U176A"
readout_number = 0.00776

[[record]]
variant_designation = "C82U A111G A120C A145G C150A U176C"
readout_number = 0.0246

[[record]]
variant_designation = "C82A A111U A120U A145C U176G"
readout_number = 0.00274

[[record]]
variant_designation = "A111C C169G"
readout_number = 0.0716

[[record]]
variant_designation = "A111C A120U C169U U176C"
readout_number = 0.0214

[[record]]
variant_designation = "C82G A111U A120U A145C"
readout_number = 0.0386

[[record]]
variant_designation = "C82U A145C C150U C169U U176C"
readout_number = 0.00673

[[record]]
variant_designation = "C82U A120U A145G C169G U176C"
readout_number = 0.00346

[[record]]
variant_designation = "C82G A111G A120C C150A U176C"
readout_number = 0.0277

[[record]]
variant_designation = "C82U A111U A120C A145G C150U C169A U176C"
readout_number = 0.0136

[[record]]
variant_designation = "C82A A111U A120C C169A"
readout_number = 0.00982

[[record]]
variant_designation = "C82G A111U A120G A145C U176G"
readout_number = 0.0065

[[record]]
variant_designation = "A120G A145G C150G C169A U176G"
readout_number = 0.00777

[[record]]
variant_designation = "C82A A111C A120C A145C C169A U176C"
readout_number = 0.00859

[[record]]
variant_designation = "C82U A111U A120U C169A U176A"
readout_number = 0.00285

[[record]]
variant_designation = "C82U A111C A120U A145U C150A C169A"
readout_number = 0.00298

[[record]]
variant_designation = "C82A A111G A120U C150U C169A U176A"
readout_number = 0.00534

[[record]]
variant_designation = "C82U A145C C150G C169A U176C"
readout_number = 0.00546

[[record]]
variant_designation = "C82G A111C A120U A145C C150G C169A U176G"
readout_number = 0.00274

[[record]]
variant_designation = "C82A A111C A120C C150A C169A U176A"
readout_number = 0.0196

[[record]]
variant_designation = "C82A A111C A120C A145U C150U C169G U176G"
readout_number = 0.00815

[[record]]
variant_designation = "A111U A120U A145C C150G C169U"
readout_number = 0.00895

[[record]]
variant_designation = "C82A A111C A120C C150U U176A"
readout_number = 0.0123

[[record]]
variant_designation = "C82U A120U A145C C150A C169G U176A"
readout_number = 0.00223

[[record]]
variant_designation = "A111C A145U C150G C169U U176A"
readout_number = 0.0095

[[record]]
variant_designation = "C82A A111C A120G C150U C169A U176A"
readout_number = 0.013

[[record]]
variant_designation = "C82G A111C A120G A145C C150A C169U"
readout_number = 0.00679

[[record]]
variant_designation = "C82U A111G A120U A145C C150G U176A"
readout_number = 0.0026

[[record]]
variant_designation = "C82A A111G A120G A145G C169U U176A"
readout_number = 0.019

[[record]]
variant_designation = "C82U A120G A145C C150G U176A"
readout_number = 0.00438

[[record]]
variant_designation = "A111C A120C A145U C150U C169A U176C"
readout_number = 0.00838

[[record]]
variant_designation = "C82U A111U A120C A145C C150G U176C"
readout_number = 0.00663

[[record]]
variant_designation = "A111C A120G C169G U176A"
readout_number = 0.0304

[[record]]
variant_designation = "C82U A111C A145U C150A"
readout_number = 0.0231

[[record]]
variant_designation = "C82U A111C A120G A145G C169U"
readout_number = 0.00883

[[record]]
variant_designation = "C82A A120G A145C C169U U176G"
readout_number = 0.00381

[[record]]
variant_designation = "A111G A120U A145G C150U C169U U176G"
readout_number = 0.00334

[[record]]
variant_designation = "C82G A111C A145G C150U U176G"
readout_number = 0.0306

[[record]]
variant_designation = "C82A A111G A120C A145U C150U"
readout_number = 0.0296

[[record]]
variant_designation = "C82G A111U A120U A145U C169G U176G"
readout_number = 0.00186

[[record]]
variant_designation = "C82U A111G A120C A145U C150U U176A"
readout_number = 0.0147

[[record]]
variant_designation = "C82G A111U A120U A145C C150A C169G U176A"
readout_number = 0.00283

[[record]]
variant_designation = "C82U A120U A145U C150A C169G U176C"
readout_number = 0.00274

[[record]]
variant_designation = "C82A A111U A120C A145U C150A C169G U176G"
readout_number = 0.00723

[[record]]
variant_designation = "A111G A120C C169U U176A"
readout_number = 0.0684

[[record]]
variant_designation = "C82A A120C A145G C150G U176A"
readout_number = 0.00881

[[record]]
variant_designation = "C82G A111C A120U C150A C169U U176C"
readout_number = 0.00469

[[record]]
variant_designation = "C82A A111C A120U C150A C169U"
readout_number = 0.00635

[[record]]
variant_designation = "C82G A120G A145G C150G C169A U176C"
readout_number = 0.013

[[record]]
variant_designation = "C82G A111G A145G C150U C169A"
readout_number = 0.0104

[[record]]
variant_designation = "C82U A111U A120C A145C C150A C169U"
readout_number = 0.0102

[[record]]
variant_designation = "C82A A120C A145G C150G U176G"
readout_number = 0.00716

[[record]]
variant_designation = "C82A A111U A145U C150U C169G"
readout_number = 0.00969

[[record]]
variant_designation = "C82A A120U A145G C150A C169U U176C"
readout_number = 0.00385

[[record]]
variant_designation = "A111U A120G A145U C150U C169G U176A"
readout_number = 0.0274

[[record]]
variant_designation = "C82G A120U A145U C150U C169U U176G"
readout_number = 0.00159

[[record]]
variant_designation = "C82A A111C A120G A145C C150G U176C"
readout_number = 0.0141

[[record]]
variant_designation = "C82A A111C C150G U176C"
readout_number = 0.0124

[[record]]
variant_designation = "A111C A120C A145U C169A U176C"
readout_number = 0.0102

[[record]]
variant_designation = "A111C A120G A145U C150G C169U"
readout_number = 0.0209

[[record]]
variant_designation = "C82G A120U A145G C150G U176C"
readout_number = 0.0152

[[record]]
variant_designation = "C82A A111G A120C A145C C150G C169U U176G"
readout_number = 0.00527

[[record]]
variant_designation = "C82A A120C A145C C169U U176G"
readout_number = 0.00354

[[record]]
variant_designation = "C82U C150G C169U U176A"
readout_number = 0.0076

[[record]]
variant_designation = "C82A A145G C150A C169A"
readout_number = 0.0108

[[record]]
variant_designation = "C82G A111C A120U A145G C150U C169A U176A"
readout_number = 0.00776

[[record]]
variant_designation = "C82G A111G A145U C150U C169G U176C"
readout_number = 0.0152

[[record]]
variant_designation = "A111U A120C C150A C169A U176C"
readout_number = 0.0133

[[record]]
variant_designation = "C82A A111U A120U A145G C150A U176A"
readout_number = 0.00879

[[record]]
variant_designation = "C82G A111G A120U A145G C150A C169G U176C"
readout_number = 0.00625

[[record]]
variant_designation = "C82G A111U A145G C150G C169A U176A"
readout_number = 0.0133

[[record]]
variant_designation = "C82U A111G A120G"
readout_number = 0.0173

[[record]]
variant_designation = "C82U A111G A120U A145C C150U C169A U176C"
readout_number = 0.0021

[[record]]
variant_designation = "C82A A111C A120C A145C U176C"
readout_number = 0.0149

[[record]]
variant_designation = "C82G A111G A120G A145G C150U C169G"
readout_number = 0.0181

[[record]]
variant_designation = "C82A A120U C150U C169A U176G"
readout_number = 0.00226

[[record]]
variant_designation = "C82A A111C A120G A145G C150U"
readout_number = 0.0128

[[record]]
variant_designation = "C82A A111C A120G A145U C150G"
readout_number = 0.00701

